All figures here come from patent US20230285576A1.

- Test system: NCI-H510A
- method notes: MTS viability assay, CRLX-101 alone and with Olaparib, NCI-H510A
- Assay type: cell-based
- experimental context: Homo sapiens, 72 hours, Olaparib alone, read-out: IC50 relative
property measured: IC50 (µM)

[
  {
    "smiles text": "O=C(c1cc(Cc2n[nH]c(=O)c3ccccc23)ccc1F)N1CCN(C(=O)C2CC2)CC1",
    "property measured": "IC50",
    "numeric result": 2.66
  }
]

* * *

- Test system: DU145
- method notes: MTS viability assay, CRLX-101 alone and with Olaparib, DU145
- Assay type: cell-based
- experimental context: Homo sapiens, DU-145, 72 hours, Olaparib alone, read-out: IC50 relative
pIC50: −log10 of the molar value.

[
  {
    "smiles text": "O=C(c1cc(Cc2n[nH]c(=O)c3ccccc23)ccc1F)N1CCN(C(=O)C2CC2)CC1",
    "target": "DU145",
    "pIC50": 4.93
  }
]
